System: K. pneumoniae NVT1001 strains with QnrB, QnrS or AAC(6′)-Ib-cr plasmids
Assay: Etest MIC of quinolones, GyrA/ParC mutations, ΔramR and/or QnrB, QnrS or AAC(6′)-Ib-cr (Table 12)
Format: cell-based
Settings: Klebsiella pneumoniae, QnrS on pACYC177; S83I/S80I mutant
property-name: MIC

The molecule listed as COc1c(N2C[C@@H]3CCCN[C@@H]3C2)c(F)cc2c(=O)c(C(=O)O)cn(C3CC3)c12 [Moxifloxacin, moxifloxacin] has a reported MIC of > 32 µg/mL

GET /value?item= C[C@H]1COc2c(N3CCN(C)CC3)c(F)cc3c(=O)c(C(=O)O)cn1c23 [Levofloxacin, levofloxacin] &field=MIC returns 32 µg/mL

For this molecule ( CC1COc2c(N3CCN(C)CC3)c(F)cc3c(=O)c(C(=O)O)cn1c23 (centres unmarked) [Ofloxacin, ofloxacin] ), measured MIC is > 32 µg/mL

For this molecule ( CCn1cc(C(=O)O)c(=O)c2cc(F)c(N3CCNCC3)cc21 [Norfloxacin, norfloxacin] ), measured MIC is 64 µg/mL

So for CCn1cc(C(=O)O)c(=O)c2ccc(C)nc21 [Nalidixic acid, nalidixic acid] , the logged MIC turned out to be > 256 µg/mL

###

System: K. pneumoniae NVT1001 strains with ESBL or AmpC β-lactamase plasmids
Assay: Etest MIC of β-lactams, OmpK35/36 loss, ΔramR and/or extended-spectrum β-lactamase and AmpC β-lactamase (Table 8)
Assay type: cell-based, Klebsiella pneumoniae
Details: Klebsiella pneumoniae, SHV-12 on pACYC177; Δ35/36 (ΔompK35/36 mutant)
property-name: MIC (µg/mL)
Just the number please, in µg/mL, no unit attached.

For record C[C@@H](O)[C@H]1C(=O)N2C(C(=O)O)=C(S[C@@H]3CN[C@H](CNS(N)(=O)=O)C3)[C@H](C)[C@H]12 the listed MIC is 1

The compound identified as C[C@@H](O)[C@H]1C(=O)N2C(C(=O)O)=C(SCCN=CN)C[C@H]12 registered its MIC at 1

###

System: K. pneumoniae NVT1001 strains with ESBL or AmpC β-lactamase plasmids
Test: Etest MIC of β-lactams, OmpK35/36 loss, ΔramR and/or extended-spectrum β-lactamase and AmpC β-lactamase (Table 8)
Format: cell-based, Klebsiella pneumoniae
Conditions: Klebsiella pneumoniae, no supplemental plasmid; ΔramRΔ36 (ΔramRΔompK36 mutant)
Mark Condition met only for MIC values smaller than 2 µg/mL; exact matches and larger values are Condition not met.

q: Lab note: MIC threshold 2 µg/mL. Does this molecule come in strictly under it? C[C@@H](O)[C@H]1C(=O)N2C(C(=O)O)=C(S[C@@H]3CN[C@H](C(=O)Nc4cccc(C(=O)O)c4)C3)[C@H](C)[C@H]12 [Ertapenem]
a: Condition not met

q: Quick check: does C[C@@H](O)[C@H]1C(=O)N2C(C(=O)O)=C(SCCN=CN)C[C@H]12 [Imipenem] have MIC under 2 µg/mL?
a: Condition met

q: Does C[C@@H](O)[C@H]1C(=O)N2C(C(=O)O)=C(S[C@@H]3CN[C@H](CNS(N)(=O)=O)C3)[C@H](C)[C@H]12 [Doripenem] have MIC strictly under 2 µg/mL?
a: Condition met

q: # TODO verify MIC < 2 µg/mL strictly for this molecule: CO/N=C(\C(=O)N[C@@H]1C(=O)N2C(C(=O)O)=C(COC(C)=O)CS[C@H]12)c1csc(N)n1 [Cefotaxime]
a: Condition not met

q: Lab note: MIC threshold 2 µg/mL. Does this molecule come in strictly under it? CCO/N=C(\C(=O)N[C@@H]1C(=O)N2C(C(=O)[O-])=C(Sc3nc(-c4cc[n+](C)cc4)cs3)CS[C@H]12)c1nsc(N)n1 [Ceftaroline]
a: Condition not met

q: Item CO/N=C(\C(=O)N[C@@H]1C(=O)N2C(C(=O)O)=C(COC(N)=O)CS[C@H]12)c1ccco1 [Cefuroxime] : MIC beneath 2 µg/mL, strictly?
a: Condition not met

q: Please check: MIC for CC(=O)OCC1=C(C(=O)O)N2C(=O)[C@@H](NC(=O)Cc3cccs3)[C@H]2SC1 [Cephalothin] , strictly under 2 µg/mL or not?
a: Condition not met

q: Criterion: MIC strictly below 2 µg/mL. Is it met by C[C@H]1[C@H](NC(=O)/C(=N\OC(C)(C)C(=O)O)c2csc(N)n2)C(=O)N1S(=O)(=O)O [Aztreonam] ?
a: Condition met

q: Lab note: MIC threshold 2 µg/mL. Does this molecule come in strictly under it? CO[C@@]1(NC(=O)Cc2cccs2)C(=O)N2C(C(=O)O)=C(COC(N)=O)CS[C@@H]21 [Cefoxitin]
a: Condition not met

###

Tested on: K. pneumoniae NVT1001 strains with ESBL or AmpC β-lactamase plasmids
Test: Etest MIC of β-lactams, OmpK35/36 loss, ΔramR and/or extended-spectrum β-lactamase and AmpC β-lactamase (Table 8)
Type: cell-based, Klebsiella pneumoniae
Conditions: Klebsiella pneumoniae, DHA-1-AmpR on pACYC177; ΔramR mutant
property-name: log10 MIC (log10 of the value in µg/mL)
Scale: log10; quantity: MIC; unit before log: µg/mL

Please fill in: log10 MIC reported for C[C@@H](O)[C@H]1C(=O)N2C(C(=O)O)=C(S[C@@H]3CN[C@H](C(=O)N(C)C)C3)[C@H](C)[C@H]12 [Meropenem] = -0.90

The recorded log10 MIC for C[C@@H](O)[C@H]1C(=O)N2C(C(=O)O)=C(S[C@@H]3CN[C@H](C(=O)Nc4cccc(C(=O)O)c4)C3)[C@H](C)[C@H]12 [Ertapenem] is 0.00

log10 MIC for C[C@H]1[C@H](NC(=O)/C(=N\OC(C)(C)C(=O)O)c2csc(N)n2)C(=O)N1S(=O)(=O)O [Aztreonam] is 0.60

Reported log10 MIC of CCO/N=C(\C(=O)N[C@@H]1C(=O)N2C(C(=O)[O-])=C(Sc3nc(-c4cc[n+](C)cc4)cs3)CS[C@H]12)c1nsc(N)n1 [Ceftaroline] : 0.90

Summary for this compound, C[C@@H](O)[C@H]1C(=O)N2C(C(=O)O)=C(SCCN=CN)C[C@H]12 [Imipenem] : log10 MIC is -0.60

The reported value for CC(C)(O/N=C(\C(=O)N[C@@H]1C(=O)N2C(C(=O)[O-])=C(C[n+]3ccccc3)CS[C@H]12)c1csc(N)n1)C(=O)O [Ceftazidime] in terms of log10 MIC is 1.81

// field: log10 MIC; key: C[C@@H](O)[C@H]1C(=O)N2C(C(=O)O)=C(S[C@@H]3CN[C@H](CNS(N)(=O)=O)C3)[C@H](C)[C@H]12 [Doripenem] ; value = -0.90

GET /value?item= CO/N=C(\C(=O)N[C@@H]1C(=O)N2C(C(=O)O)=C(COC(C)=O)CS[C@H]12)c1csc(N)n1 [Cefotaxime] &field=log10 MIC returns 1.20

###

Test system: K. pneumoniae NVT1001 strains with QnrB, QnrS or AAC(6′)-Ib-cr plasmids
Assay: Etest MIC of quinolones, GyrA/ParC mutations, ΔramR and/or QnrB, QnrS or AAC(6′)-Ib-cr (Table 12)
Format: cell-based
Details: Klebsiella pneumoniae, QnrB on pACYC177; WT (NVT1001); read-out: MIC
Kindly supply the reported MIC values for the records listed here.
Reply numerically in µg/mL, unit not repeated.

Please fill in: MIC reported for CC1COc2c(N3CCN(C)CC3)c(F)cc3c(=O)c(C(=O)O)cn1c23 (centres unmarked) = 4

According to the records, this compound CCn1cc(C(=O)O)c(=O)c2cc(F)c(N3CCNCC3)cc21 displays MIC of 2

// recorded MIC for COc1c(N2C[C@@H]3CCCN[C@@H]3C2)c(F)cc2c(=O)c(C(=O)O)cn(C3CC3)c12 : 2

Query C[C@H]1COc2c(N3CCN(C)CC3)c(F)cc3c(=O)c(C(=O)O)cn1c23 yields MIC of 1

Value of measured MIC for the entry CCn1cc(C(=O)O)c(=O)c2ccc(C)nc21 : 32

###

Test system: K. pneumoniae NVT1001 and its GyrA/ParC and ΔramR mutants
Experiment: Etest MIC of quinolones, GyrA/ParC mutations and AcrAB-TolC overexpression (ΔramR) (Table 10)
Type: cell-based
Conditions: Klebsiella pneumoniae, ΔramR/S83I/S801 mutant
property-name: MIC

For C[C@H]1COc2c(N3CCN(C)CC3)c(F)cc3c(=O)c(C(=O)O)cn1c23 the compound record lists MIC as > 32 µg/mL

Given item CCn1cc(C(=O)O)c(=O)c2cc(F)c(N3CCNCC3)cc21 , the value recorded as its MIC is 128 µg/mL

Value of MIC reported for the compound CC1COc2c(N3CCN(C)CC3)c(F)cc3c(=O)c(C(=O)O)cn1c23 (centres unmarked) is > 32 µg/mL

The compound listed as CCn1cc(C(=O)O)c(=O)c2ccc(C)nc21 has a reported MIC of > 256 µg/mL

Looking up COc1c(N2C[C@@H]3CCCN[C@@H]3C2)c(F)cc2c(=O)c(C(=O)O)cn(C3CC3)c12 , I found its MIC recorded as > 32 µg/mL
